Target: Vascular endothelial growth factor receptor 1 (Homo sapiens, UniProt P17948)
Sequence (P17948 whole entry): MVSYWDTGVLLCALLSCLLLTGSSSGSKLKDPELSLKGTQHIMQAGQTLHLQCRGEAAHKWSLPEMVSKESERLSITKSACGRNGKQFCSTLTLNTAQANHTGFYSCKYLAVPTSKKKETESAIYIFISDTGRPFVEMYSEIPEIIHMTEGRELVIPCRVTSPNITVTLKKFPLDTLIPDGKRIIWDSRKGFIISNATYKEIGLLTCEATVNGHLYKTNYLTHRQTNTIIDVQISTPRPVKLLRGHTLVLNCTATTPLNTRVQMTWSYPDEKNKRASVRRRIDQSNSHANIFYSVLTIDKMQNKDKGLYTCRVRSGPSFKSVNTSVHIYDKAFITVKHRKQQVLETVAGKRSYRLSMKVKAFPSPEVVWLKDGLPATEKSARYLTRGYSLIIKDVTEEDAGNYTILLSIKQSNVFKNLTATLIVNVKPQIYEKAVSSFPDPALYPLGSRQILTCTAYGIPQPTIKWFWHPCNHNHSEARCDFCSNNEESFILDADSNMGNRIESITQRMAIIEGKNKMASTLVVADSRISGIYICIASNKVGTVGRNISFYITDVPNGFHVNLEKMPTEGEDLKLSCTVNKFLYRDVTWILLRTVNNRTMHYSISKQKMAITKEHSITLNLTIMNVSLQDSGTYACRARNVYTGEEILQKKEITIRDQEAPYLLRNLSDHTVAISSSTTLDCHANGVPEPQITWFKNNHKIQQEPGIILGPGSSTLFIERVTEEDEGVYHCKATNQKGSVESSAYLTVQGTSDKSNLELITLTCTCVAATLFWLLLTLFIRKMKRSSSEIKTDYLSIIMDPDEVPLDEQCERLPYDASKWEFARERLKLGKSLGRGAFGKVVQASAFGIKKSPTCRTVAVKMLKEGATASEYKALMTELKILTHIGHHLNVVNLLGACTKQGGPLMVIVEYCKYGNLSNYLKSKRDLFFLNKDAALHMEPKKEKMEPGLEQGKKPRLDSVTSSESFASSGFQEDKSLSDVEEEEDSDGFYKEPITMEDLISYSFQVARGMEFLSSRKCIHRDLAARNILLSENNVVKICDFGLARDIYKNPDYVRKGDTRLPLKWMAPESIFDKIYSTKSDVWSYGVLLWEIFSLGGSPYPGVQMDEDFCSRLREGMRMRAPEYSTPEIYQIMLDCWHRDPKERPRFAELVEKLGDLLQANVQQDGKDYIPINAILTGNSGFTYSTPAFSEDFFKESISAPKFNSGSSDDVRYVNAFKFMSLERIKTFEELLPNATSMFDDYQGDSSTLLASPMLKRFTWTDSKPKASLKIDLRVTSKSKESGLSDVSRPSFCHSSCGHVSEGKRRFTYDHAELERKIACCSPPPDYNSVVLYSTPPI
readout-label: IC50 (nM)

>>> test_result("CCn1cc(-c2ccnc3[nH]c(-c4cccc(CN(C)C)c4)cc23)c(-c2ccc(NC(=O)N(C)C)cc2)n1")
42

###

Target: Serine/threonine-protein kinase SIK1 (Homo sapiens, UniProt P57059)
Sequence (P57059 whole entry): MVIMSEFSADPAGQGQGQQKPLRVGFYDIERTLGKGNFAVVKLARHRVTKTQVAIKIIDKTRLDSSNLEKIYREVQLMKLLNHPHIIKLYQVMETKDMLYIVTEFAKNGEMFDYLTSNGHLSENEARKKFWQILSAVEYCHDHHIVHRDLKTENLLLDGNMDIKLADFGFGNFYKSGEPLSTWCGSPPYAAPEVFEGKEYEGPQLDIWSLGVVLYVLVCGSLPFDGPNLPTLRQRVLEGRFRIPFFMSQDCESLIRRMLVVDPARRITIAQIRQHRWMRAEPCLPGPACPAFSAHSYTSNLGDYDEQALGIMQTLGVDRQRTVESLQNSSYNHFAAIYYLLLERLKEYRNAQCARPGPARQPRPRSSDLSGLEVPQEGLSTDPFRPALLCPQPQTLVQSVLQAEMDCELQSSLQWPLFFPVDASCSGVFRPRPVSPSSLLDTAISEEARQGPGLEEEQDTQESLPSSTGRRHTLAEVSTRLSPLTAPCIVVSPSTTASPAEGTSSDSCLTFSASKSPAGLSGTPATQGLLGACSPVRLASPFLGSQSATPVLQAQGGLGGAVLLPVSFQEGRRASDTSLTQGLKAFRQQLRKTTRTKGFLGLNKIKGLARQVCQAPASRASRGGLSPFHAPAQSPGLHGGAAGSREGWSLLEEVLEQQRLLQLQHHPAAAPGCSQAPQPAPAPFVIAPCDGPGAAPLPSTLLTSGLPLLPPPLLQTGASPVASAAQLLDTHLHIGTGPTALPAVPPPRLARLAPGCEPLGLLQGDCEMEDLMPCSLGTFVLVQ
readout-label: IC50 (nM)

>>> test_result("CCn1cc(-c2ccnc3[nH]c(-c4cccc(CN(C)C)c4)cc23)c(-c2ccc(NC(=O)N(C)C)cc2)n1")
70

###

Biological target: Angiopoietin-1 receptor (Homo sapiens)
Sequence (Q02763 whole entry): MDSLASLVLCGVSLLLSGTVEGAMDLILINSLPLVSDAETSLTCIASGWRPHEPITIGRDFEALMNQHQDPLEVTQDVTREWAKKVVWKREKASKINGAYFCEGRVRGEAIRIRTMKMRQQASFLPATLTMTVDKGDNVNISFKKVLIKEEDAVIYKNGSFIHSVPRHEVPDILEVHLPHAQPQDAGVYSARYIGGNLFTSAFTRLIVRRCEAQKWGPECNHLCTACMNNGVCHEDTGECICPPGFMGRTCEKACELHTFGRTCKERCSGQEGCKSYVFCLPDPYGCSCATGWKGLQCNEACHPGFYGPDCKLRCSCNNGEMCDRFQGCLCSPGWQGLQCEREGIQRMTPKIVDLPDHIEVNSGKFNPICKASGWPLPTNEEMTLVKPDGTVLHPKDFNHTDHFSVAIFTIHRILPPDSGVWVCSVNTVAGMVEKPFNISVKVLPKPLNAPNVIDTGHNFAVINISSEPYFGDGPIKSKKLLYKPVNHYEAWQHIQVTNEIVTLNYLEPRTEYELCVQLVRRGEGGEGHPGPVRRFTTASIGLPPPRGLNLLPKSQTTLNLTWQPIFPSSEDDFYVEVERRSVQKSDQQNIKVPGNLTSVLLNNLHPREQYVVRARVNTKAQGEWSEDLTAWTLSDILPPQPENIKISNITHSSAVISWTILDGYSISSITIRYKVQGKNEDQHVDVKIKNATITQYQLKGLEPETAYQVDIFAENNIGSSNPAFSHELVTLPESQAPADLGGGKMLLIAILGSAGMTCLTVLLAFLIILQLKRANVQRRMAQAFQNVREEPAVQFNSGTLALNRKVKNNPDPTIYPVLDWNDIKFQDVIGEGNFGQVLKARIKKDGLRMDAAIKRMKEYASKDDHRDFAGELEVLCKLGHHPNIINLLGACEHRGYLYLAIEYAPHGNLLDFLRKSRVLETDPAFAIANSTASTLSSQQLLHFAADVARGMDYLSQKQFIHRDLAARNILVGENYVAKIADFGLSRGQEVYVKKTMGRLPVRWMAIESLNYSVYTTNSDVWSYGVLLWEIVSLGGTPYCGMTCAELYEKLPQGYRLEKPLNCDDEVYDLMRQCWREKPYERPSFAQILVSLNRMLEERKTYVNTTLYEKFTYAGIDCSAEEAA
readout-label: IC50 (nM)

>>> test_result("CCn1cc(-c2ccnc3[nH]c(-c4cccc(CN(C)C)c4)cc23)c(-c2ccc(NC(=O)N(C)C)cc2)n1")
59

###

Molecular target: Aurora kinase B/Inner centromere protein (Homo sapiens, UniProt Q96GD4)
Sequence (Q96GD4 whole entry): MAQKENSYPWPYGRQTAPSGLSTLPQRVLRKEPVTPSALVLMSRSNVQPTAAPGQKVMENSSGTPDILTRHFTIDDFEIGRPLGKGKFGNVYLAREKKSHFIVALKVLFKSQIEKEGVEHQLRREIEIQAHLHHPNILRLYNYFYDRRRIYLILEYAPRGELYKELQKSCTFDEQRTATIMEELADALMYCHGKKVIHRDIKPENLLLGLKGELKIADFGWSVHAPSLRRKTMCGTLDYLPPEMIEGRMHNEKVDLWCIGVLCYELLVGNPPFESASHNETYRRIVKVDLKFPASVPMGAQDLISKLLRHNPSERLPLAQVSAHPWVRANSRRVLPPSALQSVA
Sequence (Q9NQS7 whole entry, further chain): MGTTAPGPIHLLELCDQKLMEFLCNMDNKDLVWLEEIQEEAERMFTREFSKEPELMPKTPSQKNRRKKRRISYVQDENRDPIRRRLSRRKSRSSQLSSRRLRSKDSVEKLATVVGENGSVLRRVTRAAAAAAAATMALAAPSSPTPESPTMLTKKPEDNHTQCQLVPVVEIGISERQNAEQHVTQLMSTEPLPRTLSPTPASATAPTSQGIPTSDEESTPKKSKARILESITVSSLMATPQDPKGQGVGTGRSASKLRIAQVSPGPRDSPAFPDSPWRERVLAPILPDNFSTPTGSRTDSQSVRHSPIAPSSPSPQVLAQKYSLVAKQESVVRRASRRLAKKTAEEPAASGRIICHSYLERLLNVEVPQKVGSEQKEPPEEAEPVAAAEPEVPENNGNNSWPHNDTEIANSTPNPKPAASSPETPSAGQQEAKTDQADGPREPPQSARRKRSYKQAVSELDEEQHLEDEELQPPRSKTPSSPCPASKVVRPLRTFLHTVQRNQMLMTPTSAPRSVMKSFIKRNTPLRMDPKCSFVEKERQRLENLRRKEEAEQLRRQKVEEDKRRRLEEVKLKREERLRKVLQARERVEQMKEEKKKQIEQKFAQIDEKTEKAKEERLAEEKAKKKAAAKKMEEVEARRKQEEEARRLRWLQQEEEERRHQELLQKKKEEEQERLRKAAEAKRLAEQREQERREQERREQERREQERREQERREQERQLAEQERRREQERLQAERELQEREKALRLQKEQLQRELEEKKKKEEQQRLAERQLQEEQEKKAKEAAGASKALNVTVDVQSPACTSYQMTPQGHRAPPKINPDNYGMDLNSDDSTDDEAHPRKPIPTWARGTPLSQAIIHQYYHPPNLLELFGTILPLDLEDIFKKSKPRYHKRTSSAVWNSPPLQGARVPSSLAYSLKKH
Test: Inhibition of human AurB/INCENP in PBS using Biotin-Ahx-RARRRLSFFFFAKKK-NH2 as substrate incubated for 30 mins in presence of ATP
Assay type: protein-complex assay
pIC50: −log10 of the molar value.
readout-label: pIC50

>>> test_result("CCn1cc(-c2ccnc3[nH]c(-c4cccc(CN(C)C)c4)cc23)c(-c2ccc(NC(=O)N(C)C)cc2)n1")
8.46

###

Target: Aurora-C/INCENP (Homo sapiens, UniProt Q9NQS7+Q9UQB9)
Sequence (Q9UQB9 whole entry): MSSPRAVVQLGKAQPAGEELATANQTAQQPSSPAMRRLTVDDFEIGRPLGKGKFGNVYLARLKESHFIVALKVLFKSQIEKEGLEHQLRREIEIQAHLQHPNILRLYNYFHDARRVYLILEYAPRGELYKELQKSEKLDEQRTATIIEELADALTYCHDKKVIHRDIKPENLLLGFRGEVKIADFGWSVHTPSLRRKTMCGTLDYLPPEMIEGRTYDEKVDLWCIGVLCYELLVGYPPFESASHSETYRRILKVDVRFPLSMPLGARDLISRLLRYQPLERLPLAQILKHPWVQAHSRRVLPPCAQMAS
Sequence (Q9NQS7 whole entry): as the sequence (Q9NQS7 whole entry, further chain) above
Assay: Binding affinity to human AurC/INCENP assessed as inhibition constant using aurora sox peptide as substrate incubated for 60 mins in presence of ATP by fluorescence based assay
pKi: −log10 of the molar value.
readout-label: pKi

>>> test_result("CCn1cc(-c2ccnc3[nH]c(-c4cccc(CN(C)C)c4)cc23)c(-c2ccc(NC(=O)N(C)C)cc2)n1")
8.84
